Listing of entries alongside the reported Bliss excess.
System: NCI-H2405 (Lung Adenocarcinoma)
Assay: Bliss excess, mean over the matrix (fraction); higher = more synergy
Quick one: just the number, no unit, thanks!

Provide one value: measured Bliss excess of CC1(C)CCC(CN2CCN(c3ccc(C(=O)NS(=O)(=O)c4ccc(NCC5CCOCC5)c([N+](=O)[O-])c4)c(Oc4cnc5[nH]ccc5c4)c3)CC2)=C(c2ccc(Cl)cc2)C1 [Venetoclax] + COc1cc(Nc2ncc3c(n2)-c2ccc(Cl)cc2C(c2c(F)cccc2OC)=NC3)ccc1C(=O)O [Alisertib] (first compound max 1 µM, 7x7, partner max 10 µM)
-0.0251

Provide one value: measured Bliss excess of CCN(CCO)CCCOc1ccc2c(Nc3cc(CC(=O)Nc4cccc(F)c4)[nH]n3)ncnc2c1 [AZD2811] + C=CCn1c(=O)c2cnc(Nc3ccc(N4CCN(C)CC4)cc3)nc2n1-c1cccc(C(C)(C)O)n1 [AZD1775] (first compound max 1 µM, partner max 1 µM)
-0.021

Provide one value: measured Bliss excess of COc1nnc2ccc(N3CCC(c4ccc(OCCN5CCN(C)C(=O)[C@H]5C)cc4)CC3)nn12 [AZD5153] + C=CCn1c(=O)c2cnc(Nc3ccc(N4CCN(C)CC4)cc3)nc2n1-c1cccc(C(C)(C)O)n1 [AZD1775] (first compound max 1 µM, partner max 1 µM)
0.0195

Provide one value: measured Bliss excess of CC1(C)CCC(CN2CCN(c3ccc(C(=O)NS(=O)(=O)c4ccc(NCC5CCOCC5)c([N+](=O)[O-])c4)c(Oc4cnc5[nH]ccc5c4)c3)CC2)=C(c2ccc(Cl)cc2)C1 [Venetoclax] + CN(C)CCCOc1ccc(-c2ccc3ncc4c(c3c2)n(C2CCOCC2)c(=O)n4C)cn1 [AZD0156] (first compound max 1 µM, 7x7, partner max 1 µM)
-0.0324

Provide one value: measured Bliss excess of CN(CCO)CC[C@H](CSc1ccccc1)Nc1ccc(S(=O)(=O)NC(=O)c2ccc(N3CCC([C@@H](O)c4ccccc4-c4ccc(Cl)cc4)CC3)cc2)cc1S(=O)(=O)C(F)(F)F [AZD4320] + Cc1cc2ncnn2cc1Nc1ncc2c(n1)n(C1CCOCC1)c(=O)n2C [AZD7648] (first compound max 1 µM, 7x7, partner max 10 µM)
-0.0351

* * *

System: GOTO (Neuroblastoma)
Experiment: Bliss excess, mean over the matrix (fraction); higher = more synergy
Listing of entries alongside the reported Bliss excess.
Quick one: just the number, no unit, thanks!

Provide one value: measured Bliss excess of CN(CCO)CC[C@H](CSc1ccccc1)Nc1ccc(S(=O)(=O)NC(=O)c2ccc(N3CCC([C@@H](O)c4ccccc4-c4ccc(Cl)cc4)CC3)cc2)cc1S(=O)(=O)C(F)(F)F [AZD4320] + Cn1cnc2c(F)c(Nc3ccc(Br)cc3Cl)c(C(=O)NOCCO)cc21 [Selumetinib] (first compound max 1 µM, 7x7, partner max 3 µM)
0.13

Alright, here's another molecule for you.
Provide one value: measured Bliss excess of Cc1cc2ncnn2cc1Nc1ncc2c(n1)n(C1CCOCC1)c(=O)n2C [AZD7648] + C=CCn1c(=O)c2cnc(Nc3ccc(N4CCN(C)CC4)cc3)nc2n1-c1cccc(C(C)(C)O)n1 [AZD1775] (first compound max 10 µM, partner max 1 µM)
-0.0421

* * *

Listing of entries alongside the reported combination Emax.
System: SCC-9 (Oral Cavity Carcinoma)
Assay: combination Emax (second highest fraction inhibited in the dose matrix, 72 h); higher = more inhibition; extreme values may be limits of the assay
Quick one: just the number, no unit, thanks!

Below, each entry is followed by its recorded combination Emax result.
Quote SCC-9 (Oral Cavity Carcinoma) combination Emax for entry O=C(c1cc(Cc2n[nH]c(=O)c3ccccc23)ccc1F)N1CCN(C(=O)C2CC2)CC1 [Olaparib] + CC1(C)CCC(CN2CCN(c3ccc(C(=O)NS(=O)(=O)c4ccc(NCC5CCOCC5)c([N+](=O)[O-])c4)c(Oc4cnc5[nH]ccc5c4)c3)CC2)=C(c2ccc(Cl)cc2)C1 [Venetoclax] (first compound max 10 µM, 7x7, partner max 1 µM) .
0.0718

Quote SCC-9 (Oral Cavity Carcinoma) combination Emax for entry Cc1nc(-c2cn3c(n2)-c2ccc(-c4cnn(C(C)(C)C(N)=O)c4)cc2OCC3)n(C(C)C)n1 [Taselisib] + O=C(Nc1ccc2[nH]nc(-c3ccncc3)c2c1)[C@@H]1CCN(CC(=O)N2CCN(c3ccc(-c4ncccn4)cc3)CC2)C1 [SCH772984] (first compound max 10 µM, 7x7, partner max 5 µM) .
0.959

Others:
Quote SCC-9 (Oral Cavity Carcinoma) combination Emax for entry Cc1c2c(nn1C)CSCc1cc(n(C)n1)CSc1cc(c3ccccc3c1)OCCCc1c(C(=O)O)n(C)c3c-2c(Cl)ccc13 [AZD5991] + CCN(CCO)CCCOc1ccc2c(Nc3cc(CC(=O)Nc4cccc(F)c4)[nH]n3)ncnc2c1 [AZD2811] (first compound max 1 µM, 7x7, partner max 1 µM) .
0.293

* * *

System: U-87-MG (Glioblastoma)
Experiment: Bliss excess, mean over the matrix (fraction); higher = more synergy
reportedEndpoint: Bliss excess

Provide one value: measured Bliss excess of CN(CCO)CC[C@H](CSc1ccccc1)Nc1ccc(S(=O)(=O)NC(=O)c2ccc(N3CCC([C@@H](O)c4ccccc4-c4ccc(Cl)cc4)CC3)cc2)cc1S(=O)(=O)C(F)(F)F [AZD4320] + C[C@@H](Nc1cc(F)cc(F)c1)c1cc(C(=O)N(C)C)cc2c(=O)cc(N3CCOCC3)oc12 [AZD8186] (first compound max 1 µM, 7x7, partner max 3 µM)
0.0472

Provide one value: measured Bliss excess of CC1(C)CCC(CN2CCN(c3ccc(C(=O)NS(=O)(=O)c4ccc(NCC5CCOCC5)c([N+](=O)[O-])c4)c(Oc4cnc5[nH]ccc5c4)c3)CC2)=C(c2ccc(Cl)cc2)C1 [Venetoclax] + COc1cc(Nc2ncc3c(n2)-c2ccc(Cl)cc2C(c2c(F)cccc2OC)=NC3)ccc1C(=O)O [Alisertib] (first compound max 1 µM, 7x7, partner max 10 µM)
-0.087

Alright, here's another molecule for you.
Provide one value: measured Bliss excess of CC1(C)CCC(CN2CCN(c3ccc(C(=O)NS(=O)(=O)c4ccc(NCC5CCOCC5)c([N+](=O)[O-])c4)c(Oc4cnc5[nH]ccc5c4)c3)CC2)=C(c2ccc(Cl)cc2)C1 [Venetoclax] + C[C@@H](Nc1cc(F)cc(F)c1)c1cc(C(=O)N(C)C)cc2c(=O)cc(N3CCOCC3)oc12 [AZD8186] (first compound max 1 µM, 7x7, partner max 3 µM)
-0.117

* * *

Test system: OCUB-M (Breast Carcinoma)
Experiment: combination Emax (second highest fraction inhibited in the dose matrix, 72 h); higher = more inhibition; extreme values may be limits of the assay
reportedEndpoint: combination Emax
Quick one: just the number, no unit, thanks!

Provide one value: measured combination Emax of CN(CCO)CC[C@H](CSc1ccccc1)Nc1ccc(S(=O)(=O)NC(=O)c2ccc(N3CCC([C@@H](O)c4ccccc4-c4ccc(Cl)cc4)CC3)cc2)cc1S(=O)(=O)C(F)(F)F [AZD4320] + Nc1ccn([C@@H]2O[C@H](CO)[C@@H](O)C2(F)F)c(=O)n1 [Gemcitabine] (first compound max 1 µM, 7x7, partner max 0.3 µM)
0.812

Alright, here's another compound for you.
Provide one value: measured combination Emax of CN(CCO)CC[C@H](CSc1ccccc1)Nc1ccc(S(=O)(=O)NC(=O)c2ccc(N3CCC([C@@H](O)c4ccccc4-c4ccc(Cl)cc4)CC3)cc2)cc1S(=O)(=O)C(F)(F)F [AZD4320] + CC(=O)O[C@H]1C(=O)[C@@]2(C)[C@H]([C@H](OC(=O)c3ccccc3)[C@]3(O)C[C@H](OC(=O)[C@H](O)[C@@H](NC(=O)c4ccccc4)c4ccccc4)C(C)=C1C3(C)C)[C@]1(OC(C)=O)CO[C@@H]1C[C@@H]2O [Paclitaxel] (first compound max 1 µM, 7x7, partner max 3 µM)
1

* * *

Tested on: NH-12 (Neuroblastoma)
Experiment: combination Emax (second highest fraction inhibited in the dose matrix, 72 h); higher = more inhibition; extreme values may be limits of the assay
reportedEndpoint: combination Emax
Quick one: just the number, no unit, thanks!

Provide one value: measured combination Emax of COc1nnc2ccc(N3CCC(c4ccc(OCCN5CCN(C)C(=O)[C@H]5C)cc4)CC3)nn12 [AZD5153] + C[C@@H]1COCCN1C2=NC(=NC(=C2)C3(CC3)[S@](=N)(=O)C)C4=C5C=CNC5=NC=C4 [AZD6738] (first compound max 1 µM, 7x7, partner max 10 µM)
0.938

Alright, here's another compound for you.
Provide one value: measured combination Emax of C[C@@H](c1ccc2nccn2c1)n1nnc2ncc(-c3cnn(C)c3)nc21 [Savolitinib] + CC1(C)CCC(CN2CCN(c3ccc(C(=O)NS(=O)(=O)c4ccc(NCC5CCOCC5)c([N+](=O)[O-])c4)c(Oc4cnc5[nH]ccc5c4)c3)CC2)=C(c2ccc(Cl)cc2)C1 [Venetoclax] (first compound max 1 µM, 7x7, partner max 1 µM)
0.406
